- TARGET OR SYSTEM: IRAK4 (Homo sapiens, UniProt Q9NWZ3)
- Sequence (Q9NWZ3 1-460): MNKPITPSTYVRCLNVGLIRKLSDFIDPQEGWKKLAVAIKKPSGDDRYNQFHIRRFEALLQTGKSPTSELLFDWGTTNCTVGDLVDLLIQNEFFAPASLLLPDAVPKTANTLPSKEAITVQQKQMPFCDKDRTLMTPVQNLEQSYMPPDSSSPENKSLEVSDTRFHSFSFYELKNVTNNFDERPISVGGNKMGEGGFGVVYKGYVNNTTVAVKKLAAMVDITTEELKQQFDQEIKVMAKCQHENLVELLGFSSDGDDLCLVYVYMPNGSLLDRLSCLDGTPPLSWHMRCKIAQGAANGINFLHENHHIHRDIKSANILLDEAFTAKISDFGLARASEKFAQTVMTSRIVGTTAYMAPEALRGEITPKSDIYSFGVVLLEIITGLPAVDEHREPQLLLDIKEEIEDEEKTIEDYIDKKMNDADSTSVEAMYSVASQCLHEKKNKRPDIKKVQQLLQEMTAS
- METHOD NOTES: Kinase profiling (radiometric filter-binding)
- Format: biochemical
- CONDITION DETAILS: IRAK4, 1 µM inhibitor; read-out: Residual activity, %
Square brackets hold non-standard residues; d marks the D form. Peptide text beside a SMILES is read from it. * marks the point of attachment. X3 = O=C(CCCCCNCc1nc2c(sc3cc(Br)cnc32)c(=O)[nH]1)*
Hi there, I'd appreciate the recorded remaining activity at 1 µM for every entry that follows.
Supply the numeric figure in %, leaving out any unit text.

Param item = "N=C(N)NCCC[C@@H](NC(=O)CNC(=O)[C@@H](CCCNC(=N)N)NC(=O)[C@@H](CCCNC(=N)N)NC(=O)CCCCCCCNCc1nc2c(sc3cc(Br)cnc32)c(=O)[nH]1)C(=O)N[C@H](CCCCN)C(N)=O" ; retrieve measured remaining activity at 1 µM.
110

Form field: reported remaining activity at 1 µM of N=C(N)NCCC[C@@H](NC(=O)CCCCCNCc1nc2c(sc3cc(Br)cnc32)c(=O)[nH]1)C(=O)N[C@H](CCCNC(=N)N)C(=O)N[C@H](CCCNC(=N)N)C(=O)N[C@H](CCCNC(=N)N)C(=O)N[C@H](CCCNC(=N)N)C(=O)N[C@H](CCCNC(=N)N)C(=O)N[C@H](CCCCN)C(N)=O [ARC-3126, BPTP-Ahx-(D-Arg)6-D-Lys-NH2] (X3-[dR][dR][dR][dR][dR][dR][dK]-NH2)
97

Entry source: paper PMC8307404
